Target: T1, biotinylated human DKK1 (human, UniProt O94907 32-266, biotinylated (sites not given))
T1 construct: also called biotinylated DKK1; human recombinant, biotinylated DKK1
T1 sequence: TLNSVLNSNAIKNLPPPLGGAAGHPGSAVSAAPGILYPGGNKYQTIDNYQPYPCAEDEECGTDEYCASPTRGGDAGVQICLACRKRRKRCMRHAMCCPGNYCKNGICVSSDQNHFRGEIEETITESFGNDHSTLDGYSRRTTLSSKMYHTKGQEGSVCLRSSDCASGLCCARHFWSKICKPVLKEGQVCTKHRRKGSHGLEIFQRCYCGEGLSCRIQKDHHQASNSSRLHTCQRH
Test: ELISA, biotinylated DKK1 on Neutravidin plates, Fab 1 ug/ml, anti-FLAG-AP detection
Overview of reported Binding activity w/50% Human serum vs 4% BSA (%) across a group of binders:
Answer in %, number only, no unit symbol.

* MOR04920 (Fab, V domains shown) VH: QVQLVESGGGLVQPGGSLRLSCAASGFTFSSYWMSWVRQAPGKGLEWVSSIEHKDAGYTTWYAAGVKGRFTISRDNSKNTLYLQMNSLRAEDTAVYYCARHGIDFDHWGQGTLVTVSS VL: DIALTQPASVSGSPGQSITISCTGTSSDLGGYNYVSWYQQHPGKAPKLMIYDVNNRPSGVSNRFSGSKSGNTASLTISGLQAEDEADYYCQSYASGNTKVVFGGGTKLTVLG | 90
* MOR04913 (Fab, V domains shown) VH: QVQLVESGGGLVQPGGSLRLSCAASGFTFNNYGMTWVRQAPGKGLEWVSGISGSGSYTYYADSVKGRFTISRDNSKNTLYLQMNSLRAEDTAVYYCARTIYMDYWGQGTLVTVSS VL: DIVLTQSPATLSLSPGERATLSCRASQNLFSPYLAWYQQKPGQAPRLLIYGASNRATGVPARFSGSGSGTDFTLTISSLEPEDFAVYYCQQYMTLPLTFGQGTKVEINR | 89
* MOR04948 (Fab, V domains shown) VH: QVQLVESGGGLVQPGGSLRLSCAASGFTFSSYWMSWVRQAPGKGLEWVSGISYSGSNTHYADSVKGRFTISRDNSKNTLYLQMNSLRAEDTAVYYCARMGIDLDYWGQGTLVTVSS VL: DIALTQPASVSGSPGQSITISCTGTSSDVGGFNYVSWYQQHPGKAPKLMIHDGSNRPSGVSNRFSGSKSGNTASLTISGLQAEDEADYYCQTWDSLSFFVFGGGTKLTVLG | 100
* MOR04946 (Fab, V domains shown) VH: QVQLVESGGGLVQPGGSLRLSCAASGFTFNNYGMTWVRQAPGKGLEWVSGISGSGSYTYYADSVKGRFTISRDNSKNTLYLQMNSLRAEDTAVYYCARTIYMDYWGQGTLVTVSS VL: DIVLTQSPATLSLSPGERATLSCRASQNLFSPYLAWYQQKPGQAPRLLIYGASNRATGVPARFSGSGSGTDFTLTISSLEPEDFAVYYCQQYLTLPLTFGQGTKVEIKR | 93
* MOR04952 (Fab, V domains shown) VH: QVQLVESGGGLVQPGGSLRLSCAASGFTFSSYWMSWVRQAPGKGLEWVSVISSDSSSTYYADSVKGRFTISRDNSKNTLYLQMNSLRAEDTAVYYCARHGIDFDHWGQGTLVTVSS VL: DIALTQPASVSGSPGQSITISCTGTSSDLGGYNYVSWYQQHPGKAPKLMIYDVNNRPSGVSNRFSGSKSGNTASLTISGLQAEDEADYYCQSYDSPTDSVVFGGGTKLTVLG | 100
* MOR04945 (Fab, V domains shown) VH: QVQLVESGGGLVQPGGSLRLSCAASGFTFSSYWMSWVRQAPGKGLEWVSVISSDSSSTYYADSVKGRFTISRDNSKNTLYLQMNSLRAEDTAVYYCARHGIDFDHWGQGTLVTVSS VL: DIALTQPASVSGSPGQSITISCTGTSSDLGGYNYVSWYQQHPGKAPKLMIYDVNNRPSGVSNRFSGSKSGNTASLTISGLQAEDEADYYCQTYDQIKLSAVFGGGTKLTVLG | 89

Problem: Input MOR04910 (Fab, V domains shown, also called anti-DKK1 FAb MOR04910) VH: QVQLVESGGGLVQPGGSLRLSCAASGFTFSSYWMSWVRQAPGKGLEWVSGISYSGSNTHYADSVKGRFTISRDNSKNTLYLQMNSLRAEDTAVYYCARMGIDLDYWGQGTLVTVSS VL: DIALTQPASVSGSPGQSITISCTGTSSDVGGFNYVSWYQQHPGKAPKLMIHDGSNRPSGVSNRFSGSKSGNTASLTISGLQAEDEADYYCQSWDVSPITAVFGGGTKLTVLG , output reported Binding activity w/50% Human serum vs 4% BSA (%).
Solution: 84
